Source of measurements: patent US20090069370A1

Biological target: Human Histamine H3 Receptor (Homo sapiens, UniProt Q9Y5N1)
Construct: membrane preparation
Sequence (Q9Y5N1 whole entry): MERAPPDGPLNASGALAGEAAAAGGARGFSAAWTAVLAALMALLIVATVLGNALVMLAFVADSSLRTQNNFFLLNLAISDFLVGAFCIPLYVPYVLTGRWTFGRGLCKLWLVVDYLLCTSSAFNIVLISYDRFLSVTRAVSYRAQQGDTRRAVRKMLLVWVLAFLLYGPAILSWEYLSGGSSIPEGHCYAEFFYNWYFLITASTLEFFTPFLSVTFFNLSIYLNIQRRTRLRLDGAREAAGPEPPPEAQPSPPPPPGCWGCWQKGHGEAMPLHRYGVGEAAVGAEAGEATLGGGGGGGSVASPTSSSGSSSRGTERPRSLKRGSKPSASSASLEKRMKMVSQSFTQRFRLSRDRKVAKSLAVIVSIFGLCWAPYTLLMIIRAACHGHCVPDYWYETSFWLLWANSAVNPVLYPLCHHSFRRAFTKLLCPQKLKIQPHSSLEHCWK
Experiment: Methyl histamine binding in human histamine H3 receptor cell line
Settings: membranes of stably transfected HEK293T cells; radioligand 1 nM; Ki from IC50 by Cheng-Prusoff
Description: Evaluation of Methyl Histamine Binding in Human Histamine H3 Receptor Cell Line The affinity of test compounds for the histamine 3 (H3) receptor is evaluated in the following manner. […] The resulting pellets are stored at −80° C. until ready for use. […] Protein concentration (ug/ul) is determined using the Micro-BCA Protein Determination. […] Non-specific binding is determined in the presence of 10 uM clobenpropit. […] The CPM per well is measured on a Packard Top Count NXT. Ki values are determined in nM. […]
Counter-ions that a name gives are not always drawn.
Value type: Ki

// query Name the recorded Ki for CNC(=O)c1ccc(-c2ccc3c(c2)CCN([C@@H]2CCN(C(C)C)C2)C3=O)cc1 .
// result ≤ 0.01 µM

// query Thanks! And N#Cc1ccc(-c2ccc3c(c2)CN(C2CCN(C4CCC4)CC2)C3=O)cc1 ?
// result 0.0251 to 0.05 µM

// query Thanks! And CCNC(=O)c1ccc(COc2ccc3c(c2)CCN(C2CCN(C4CCC4)CC2)C3=O)cc1 ?
// result ≤ 0.01 µM

// query Thanks! And CCNC(=O)c1ccc(-c2ccc3c(c2)CCN([C@@H]2CCN(C4CCC4)C2)C3=O)c(F)c1 ?
// result ≤ 0.01 µM

// query Thanks! And O=C(c1ccc(-c2ccc3c(c2)CCN([C@@H]2CCN(CC4CCCC4)C2)C3=O)cc1)N1CCCC1 ?
// result 0.0101 to 0.025 µM

// query Thanks! And O=C(c1ccc(-c2ccc3c(c2)CCN(C2CCN(C4CCC4)CC2)C3=O)cc1)N1CCCC1 ?
// result ≤ 0.01 µM

// query Thanks! And N#Cc1ccc(-c2ccc3c(c2)CN(C2CCN(CC4CC4)CC2)C3=O)cc1 ?
// result 0.0501 to 0.1 µM

// query Thanks! And O=C(c1ccc(Oc2ccc3c(c2)CCN(C2CCN(C4CCC4)CC2)C3=O)cc1)N1CCCC1 ?
// result ≤ 0.01 µM

// query Thanks! And CCCN1CCC(N2Cc3cc(-c4ccc(C#N)cc4)ccc3C2=O)CC1 ?
// result > 0.1 µM

// query Thanks! And CNC(=O)c1ccc(-c2ccc3c(c2)CCN([C@@H]2CCN(C4CCCC4)C2)C3=O)cc1 ?
// result ≤ 0.01 µM

// query Thanks! And O=C(c1ccc(-c2ccc3c(c2)CCN([C@@H]2CCN(C4CCC4)C2)C3=O)cc1)N1CCCC1 ?
// result ≤ 0.01 µM

// query Thanks! And CNC(=O)c1ccc(-c2ccc3c(c2)CCN([C@@H]2CCN(C(C)C)C2)C3=O)c(F)c1 ?
// result ≤ 0.01 µM

// query Thanks! And CC(C)N1CCC(N2CCc3cc(-c4ccc(C(=O)N5CCCC5)cc4)ccc3C2=O)CC1 ?
// result ≤ 0.01 µM

// query Thanks! And CNC(=O)c1ccc(-c2ccc3c(c2)CCN([C@@H]2CCN(C4CCC4)C2)C3=O)c(F)c1 ?
// result ≤ 0.01 µM

// query Thanks! And O=C(NC1CC1)c1ccc(-c2ccc3c(c2)CCN([C@@H]2CCN(C4CCC4)C2)C3=O)c(F)c1 ?
// result ≤ 0.01 µM

// query Thanks! And O=C(O)c1ccc(COc2ccc3c(c2)CCN(C2CCN(C4CCC4)CC2)C3=O)cc1 ?
// result 0.0101 to 0.025 µM

// query Thanks! And CN(C)C(=O)c1ccc(-c2ccc3c(c2)CCN([C@@H]2CCN(C4CCC4)C2)C3=O)c(F)c1 ?
// result ≤ 0.01 µM

// query Thanks! And CCNC(=O)c1ccc(-c2ccc3c(c2)CCN([C@@H]2CCN(C(C)C)C2)C3=O)cc1 ?
// result ≤ 0.01 µM

// query Thanks! And CNC(=O)c1ccc(Oc2ccc3c(c2)CCN([C@@H]2CCN(C4CCC4)C2)C3=O)cc1 ?
// result ≤ 0.01 µM

// query Thanks! And O=C(c1ccc(-c2ccc3c(c2)CCN(C2CCN(C4CCCC4)CC2)C3=O)cc1)N1CCCC1 ?
// result ≤ 0.01 µM

// query Thanks! And N#Cc1ccc(-c2ccc3c(c2)CN(C2CCN(C4CCCCC4)CC2)C3=O)cc1 ?
// result 0.0251 to 0.05 µM

// query Thanks! And NC(=O)c1ccc(COc2ccc3c(c2)CCN(C2CCN(C4CCC4)CC2)C3=O)cc1 [Example 15, hydrochloride] ?
// result ≤ 0.01 µM

// query Thanks! And CCNC(=O)c1ccc(Oc2ccc3c(c2)CCN(C2CCN(C4CCC4)CC2)C3=O)cc1 ?
// result ≤ 0.01 µM

// query Thanks! And O=C(NC1CC1)c1ccc(Oc2ccc3c(c2)CCN(C2CCN(C4CCC4)CC2)C3=O)cc1 ?
// result ≤ 0.01 µM

// query Thanks! And O=C(c1ccc(-c2ccc3c(c2)CCN([C@@H]2CCN(C4CCC4)C2)C3=O)cc1Cl)N1CCCC1 ?
// result ≤ 0.01 µM

// query Thanks! And CNC(=O)c1ccc(COc2ccc3c(c2)CCN(C2CCN(C4CCC4)CC2)C3=O)cc1 ?
// result ≤ 0.01 µM

// query Thanks! And O=C(NC1CCC1)c1ccc(Oc2ccc3c(c2)CCN(C2CCN(C4CCC4)CC2)C3=O)cc1 ?
// result ≤ 0.01 µM

// query Thanks! And CNC(=O)c1ccc(-c2ccc3c(c2)CCN([C@@H]2CCN(C4CCC4)C2)C3=O)cc1 ?
// result ≤ 0.01 µM

// query Thanks! And O=C1NCCc2cc(-c3ccc4c(c3)CCN([C@@H]3CCN(C5CCC5)C3)C4=O)ccc21 [Example 89, hydrochloride] ?
// result ≤ 0.01 µM

// query Thanks! And O=C(c1ccc(-c2ccc3c(c2)CCN([C@@H]2CCN(Cc4ccco4)C2)C3=O)cc1)N1CCCC1 ?
// result > 0.1 µM

// query Thanks! And CCNC(=O)c1ccc(-c2ccc3c(c2)CCN([C@@H]2CCN(C4CCCC4)C2)C3=O)cc1 ?
// result ≤ 0.01 µM

// query Thanks! And CN1CC[C@@H](N2CCc3cc(-c4ccc(C(=O)N5CCCC5)cc4)ccc3C2=O)C1 ?
// result 0.0501 to 0.1 µM
